melting point reference

- molecule: "COc1cc2c(cc1O)CC[C@@H]1[C@@H]2CC[C@]2(C)[C@@H](OCCCCCCn3cc(C)c(=O)n(CCCCCCO[C@H]4CC[C@H]5[C@@H]6CCc7cc(O)c(OC)cc7[C@H]6CC[C@]45C)c3=O)CC[C@@H]12 [Compound 13b]"
  melting point: "84 to 86 °C"

QUERY: Please look up its melting point: COc1cc2c(cc1OCCCCCCn1ccc(=O)n(CCCCCCOc3cc4c(cc3OC)[C@H]3CC[C@]5(C)[C@@H](O)CC[C@H]5[C@@H]3CC4)c1=O)CC[C@@H]1[C@@H]2CC[C@]2(C)[C@@H](O)CC[C@@H]12 [Compound 20b]
RESULT: 93 to 94 °C

QUERY: Further, for COc1cc2c(cc1OCCCCCCn1c(=O)ccn([C@@H]3O[C@H](CO)[C@@H](O)[C@H]3O)c1=O)CC[C@@H]1[C@@H]2CC[C@]2(C)[C@@H](O)CC[C@@H]12 ?
RESULT: 99 to 100 °C

QUERY: Further, for COc1cc2c(cc1OCCCCCCn1cc(C)c(=O)n(CCCCCCOc3cc4c(cc3OC)[C@H]3CC[C@]5(C)[C@@H](O)CC[C@H]5[C@@H]3CC4)c1=O)CC[C@@H]1[C@@H]2CC[C@]2(C)[C@@H](O)CC[C@@H]12 [Compound 21b] ?
RESULT: 79 to 81 °C

QUERY: Further, for COc1cc2c(cc1O)CC[C@@H]1[C@@H]2CC[C@]2(C)[C@@H](OCCCCCCCCn3ccc(=O)n(CCCCCCCCO[C@H]4CC[C@H]5[C@@H]6CCc7cc(O)c(OC)cc7[C@H]6CC[C@]45C)c3=O)CC[C@@H]12 [Compound 14b] ?
RESULT: 73 to 75 °C

QUERY: Further, for COc1cc2c(cc1OCCCCCCCCn1c(=O)ccn([C@@H]3O[C@H](CO)[C@@H](O)[C@H]3O)c1=O)CC[C@@H]1[C@@H]2CC[C@]2(C)[C@@H](O)CC[C@@H]12 ?
RESULT: 93 to 95 °C
